Source of measurements: paper PMC9157191

- Test system: SIVmac32H
- ASSAY OVERVIEW: microbe, parasite or virus in culture
- Format: cell-based
- COND: Simian immunodeficiency virus, in Macaca mulatta, 360 h, NHP vaginal explants, day 15
VALUE KIND: IC50

Exercise: Item C[C@H](Cn1cnc2c(N)ncnc21)OCP(=O)(O)O has what recorded IC50?
Key: 56.1 µM

----------
- ASSAY OVERVIEW: Drug concentrations in Rhesus macaque ecto-cervical tissue explants (LC-MS/MS)
- Assay type: in vitro ADME, Rhesus macaque (Macaca mulatta)
- COND: monkey, ecto-cervical tissue explants, Rh. macaque ecto-cervical explants; Comb. gel, High [ ]: TFV 70 µM + MVC […]; 3 h exposure
VALUE KIND: Cmax (ng/g)
Numbers only here, please. The scale is ng/g.

Exercise: Item C[C@H](Cn1cnc2c(N)ncnc21)OCP(=O)(O)O has what recorded Cmax?
Key: 2460
